Measured ED50 by item
# Tested on: Rattus norvegicus
# Assay Protocol: Effective dose for Anti-inflammatory activity was determined by carrageenan induced rat hind paw edema model
# Assay type: functional
Measurement Name: ED50 (mg/kg)

INSERT INTO results (molecule, unit_abbrev, numeric_readout) VALUES
  ('CC(C(=O)O)c1ccc(-c2ccsc2)cc1 (stereo unspecified) [ATLIPROFEN]', 'mg/kg', 5.74),
  ('CC(C)Cc1ccc(C(C)C(=O)O)cc1 (stereo unspecified) [IBUPROFEN]', 'mg/kg', 33.2),
  ('CC(C)Cc1ccc([C@H](C)C(=O)O)cc1 [DEXIBUPROFEN]', 'mg/kg', 7.08),
  ('C[C@H](C(=O)O)c1ccc(-c2ccsc2)cc1', 'mg/kg', 1.85),
  ('COc1ccc2cc([C@H](C)C(=O)O)ccc2c1 [NAPROXEN]', 'mg/kg', 0.99),
  ('COc1ccc2cc(C(C)C(=O)O)ccc2c1 (stereo unspecified)', 'mg/kg', 2.35);

---

# System: Prostaglandin G/H synthase 1 (Ovis aries)
# Sequence (P05979 whole entry): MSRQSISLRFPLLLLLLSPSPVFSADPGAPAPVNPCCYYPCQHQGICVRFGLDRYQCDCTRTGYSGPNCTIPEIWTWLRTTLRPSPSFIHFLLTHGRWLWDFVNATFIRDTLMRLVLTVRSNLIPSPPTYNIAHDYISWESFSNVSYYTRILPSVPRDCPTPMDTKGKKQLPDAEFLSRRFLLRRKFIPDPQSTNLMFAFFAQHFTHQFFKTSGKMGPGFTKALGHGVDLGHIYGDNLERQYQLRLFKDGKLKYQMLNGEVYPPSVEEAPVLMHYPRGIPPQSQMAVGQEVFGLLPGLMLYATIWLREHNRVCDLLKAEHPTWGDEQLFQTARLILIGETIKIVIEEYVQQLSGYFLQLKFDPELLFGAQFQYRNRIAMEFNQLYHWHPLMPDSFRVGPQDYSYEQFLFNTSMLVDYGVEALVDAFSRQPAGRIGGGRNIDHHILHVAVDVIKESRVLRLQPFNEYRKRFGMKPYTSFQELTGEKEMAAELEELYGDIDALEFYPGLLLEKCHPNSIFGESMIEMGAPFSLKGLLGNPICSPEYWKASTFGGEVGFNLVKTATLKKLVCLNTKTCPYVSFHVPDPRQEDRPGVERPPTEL
Measurement Name: IC50 (µM)

INSERT INTO assay_data (compound_smiles, system, measurement_name, unit_abbrev, numeric_readout) VALUES
  ('C[C@H](C(=O)O)c1ccc(-c2ccsc2)cc1', 'Prostaglandin G/H synthase 1 (Ovis aries)', 'IC50', 'µM', 45.2);
